Test system: velvetleaf (Abutilon theophrasti)
measurement.notes: Test B pre-/postemergence plant response
Assay type: in vivo
conditions: Preemergence, 125 g ai/ha; 0 to 100 scale
Quick list: Velvetleaf plant response rating per entry.
value.kind: Velvetleaf plant response rating

smiles_structure=O=C1CCCC(O)=C1C(=O)c1cnc(-c2ccccc2)n(-c2cccc(Br)c2)c1=O test_target="velvetleaf (Abutilon theophrasti)" value_kind="Velvetleaf plant response rating" recorded_result=98
smiles_structure=O=C1CCCC(O)=C1C(=O)c1cnc(-c2ccccc2)n(-c2ccccc2F)c1=O test_target="velvetleaf (Abutilon theophrasti)" value_kind="Velvetleaf plant response rating" recorded_result=100
smiles_structure=CCCCc1ncc(C(=O)C2=C(O)CCCC2=O)c(=O)n1-c1ccccc1 test_target="velvetleaf (Abutilon theophrasti)" value_kind="Velvetleaf plant response rating" recorded_result=85
smiles_structure=Cc1ccccc1-n1c(-c2ccccc2)ncc(C(=O)C2=C(O)CCCC2=O)c1=O test_target="velvetleaf (Abutilon theophrasti)" value_kind="Velvetleaf plant response rating" recorded_result=100

====

Tested on: bermudagrass (Cynodon dactylon)
measurement.notes: Test B pre-/postemergence plant response
Type: in vivo
conditions: Postemergence, 125 g ai/ha; visual rating after 13 to 15 days, scale 0 (no effect) to 100 (complete control)
value.kind: Plant response rating, Bermudagrass

compound=CCCCCn1c(-c2ccccc2)ncc(C(=O)C2=C(O)CCCC2=O)c1=O recorded_result=95
compound="CCCc1ncc(C(=O)C2=C(O)CCCC2=O)c(=O)n1CC1CCCO1 (stereo not drawn)" recorded_result=95
compound=Cc1cccc(Cl)c1-n1c(-c2ccccc2)ncc(C(=O)C2=C(O)CCCC2=O)c1=O recorded_result=90

====

System: giant foxtail (Setaria faberii)
measurement.notes: Test A pre-/postemergence plant response
Assay type: in vivo
conditions: Postemergence, 125 g ai/ha; 0 to 100 scale where 0 is no effect and 100 is complete control
value.kind: Plant response rating, Foxtail, Giant

compound="Cc1ccc(Cl)cc1-n1c(-c2cccc(Br)c2)ncc(C(=O)C2=C(O)CCCC2=O)c1=O [Compound 144]" recorded_result=40
compound="CCc1ccc(-n2c(-c3cccc(Br)c3)ncc(C(=O)C3=C(O)CCCC3=O)c2=O)cc1 [Compound 177]" recorded_result=0
compound="O=C1CCCC(OC(=O)C2CC2)=C1C(=O)c1cnc(-c2ccccc2)n(-c2ccccc2)c1=O [Compound 88]" recorded_result=60
compound="O=C1CCCC(O)=C1C(=O)c1cnc(C2CCCCC2)n(-c2ccccc2)c1=O [Compound 106]" recorded_result=20
compound="Cc1ccc(C)c(-n2c(-c3ccccc3)ncc(C(=O)c3cnoc3C3CC3)c2=O)c1 [Compound 222]" recorded_result=0
compound="CCn1c(-c2ccccc2)ncc(C(=O)C2=C(O)C3CCC(C3)C2=O)c1=O (centres unmarked) [Compound 239]" recorded_result=70
compound="Cc1ccc(-n2c(-c3cccc(F)c3)ncc(C(=O)C3=C(O)CCCC3=O)c2=O)cc1 [Compound 202]" recorded_result=80
compound="O=C1CCCC(O)=C1C(=O)c1cnc(-c2ccccc2)n(C2CCCC2)c1=O [Compound 131]" recorded_result=80

====

Measured Plant response rating, Ragweed values are reported for all entries that follow.
Tested on: ragweed (common ragweed, Ambrosia elatior)
measurement.notes: Test B pre-/postemergence plant response
Type: in vivo
conditions: Postemergence, 125 g ai/ha; visual rating after 13 to 15 days, scale 0 (no effect) to 100 (complete control)
value.kind: Plant response rating, Ragweed

compound="O=C1CCCC(O)=C1C(=O)c1cnc(-c2ccccc2)n(-c2cccc(Br)c2)c1=O [Compound 38]" value_kind="Plant response rating, Ragweed" recorded_result=80
compound="Cc1cc(C)cc(-n2c(-c3ccccc3)ncc(C(=O)C3=C(O)CCCC3=O)c2=O)c1 [Compound 33]" value_kind="Plant response rating, Ragweed" recorded_result=98
compound="CCCc1ncc(C(=O)C2=C(O)CCCC2=O)c(=O)n1CC1CCCO1 (stereo not shown) [Compound 74]" value_kind="Plant response rating, Ragweed" recorded_result=85
compound="CCCn1c(-c2cccs2)ncc(C(=O)C2=C(O)CCCC2=O)c1=O [Compound 77]" value_kind="Plant response rating, Ragweed" recorded_result=80
compound="Cc1ccc(F)cc1-n1c(-c2ccccc2)ncc(C(=O)C2=C(O)CCCC2=O)c1=O [Compound 44]" value_kind="Plant response rating, Ragweed" recorded_result=95
compound="CCCc1ncc(C(=O)C2=C(O)CCCC2=O)c(=O)n1-c1ccccc1C [Compound 73]" value_kind="Plant response rating, Ragweed" recorded_result=85
compound="Cc1c(Cl)cccc1-n1c(-c2ccccc2)ncc(C(=O)C2=C(O)CCCC2=O)c1=O [Compound 40]" value_kind="Plant response rating, Ragweed" recorded_result=98
